Molecular target: T1, recombinant human IL-25 protein (human, UniProt Q9H293 33-177)
T1 sequence: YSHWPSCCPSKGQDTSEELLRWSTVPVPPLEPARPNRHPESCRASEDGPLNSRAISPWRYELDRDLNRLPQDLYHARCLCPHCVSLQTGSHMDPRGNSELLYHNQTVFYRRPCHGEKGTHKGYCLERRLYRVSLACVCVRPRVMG
Assay: cell-based or functional assay
METRIC_NAME: IC50, IL-25 induced IL-5 production in human PBMC (nM)

{"columns": ["BINDER", "UNIT_OF_MEASURE", "EXPERIMENTAL_RESULT"],
 "data": [
  ["IL25Ab4 (antibody, V domains shown) VH: QVTLKESGPGILQPSQTLSLTCSFSGFSLSTSGMGVSWIRQPSGKGLEWLAHIYWDDAKFYNPSLKSRVTISKDTSRNQVFLRITSVDTADIATYYCARRGYDNYGGFVDWGQGTLVTVSS VL: ENVLIQSPAIMSASLGEKVTMSCRASSSVNYMYWYQQKSDAPPKLWIYYTSNLAPGVPGRFSGSGSGNSYSLTISSMEGEDAATYYCQQFTSYPYMYTFGGGTKLEIK", "nM", 0.15]
]}
